- SYSTEM NAME: Toll-like receptor 9 (Homo sapiens) + Myeloid differentiation primary response protein MyD88 (Homo sapiens) (UniProt Q9NR96+Q99836)
- Sequence (Q99836 whole entry, looked up): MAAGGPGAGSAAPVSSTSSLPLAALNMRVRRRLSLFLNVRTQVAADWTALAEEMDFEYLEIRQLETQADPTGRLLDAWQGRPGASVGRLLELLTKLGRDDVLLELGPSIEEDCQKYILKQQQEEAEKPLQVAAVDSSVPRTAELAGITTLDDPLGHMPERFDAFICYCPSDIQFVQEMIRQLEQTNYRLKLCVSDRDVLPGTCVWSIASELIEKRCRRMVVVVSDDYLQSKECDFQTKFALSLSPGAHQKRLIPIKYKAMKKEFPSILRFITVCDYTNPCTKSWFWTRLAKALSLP
- Sequence (Q9NR96 whole entry, looked up): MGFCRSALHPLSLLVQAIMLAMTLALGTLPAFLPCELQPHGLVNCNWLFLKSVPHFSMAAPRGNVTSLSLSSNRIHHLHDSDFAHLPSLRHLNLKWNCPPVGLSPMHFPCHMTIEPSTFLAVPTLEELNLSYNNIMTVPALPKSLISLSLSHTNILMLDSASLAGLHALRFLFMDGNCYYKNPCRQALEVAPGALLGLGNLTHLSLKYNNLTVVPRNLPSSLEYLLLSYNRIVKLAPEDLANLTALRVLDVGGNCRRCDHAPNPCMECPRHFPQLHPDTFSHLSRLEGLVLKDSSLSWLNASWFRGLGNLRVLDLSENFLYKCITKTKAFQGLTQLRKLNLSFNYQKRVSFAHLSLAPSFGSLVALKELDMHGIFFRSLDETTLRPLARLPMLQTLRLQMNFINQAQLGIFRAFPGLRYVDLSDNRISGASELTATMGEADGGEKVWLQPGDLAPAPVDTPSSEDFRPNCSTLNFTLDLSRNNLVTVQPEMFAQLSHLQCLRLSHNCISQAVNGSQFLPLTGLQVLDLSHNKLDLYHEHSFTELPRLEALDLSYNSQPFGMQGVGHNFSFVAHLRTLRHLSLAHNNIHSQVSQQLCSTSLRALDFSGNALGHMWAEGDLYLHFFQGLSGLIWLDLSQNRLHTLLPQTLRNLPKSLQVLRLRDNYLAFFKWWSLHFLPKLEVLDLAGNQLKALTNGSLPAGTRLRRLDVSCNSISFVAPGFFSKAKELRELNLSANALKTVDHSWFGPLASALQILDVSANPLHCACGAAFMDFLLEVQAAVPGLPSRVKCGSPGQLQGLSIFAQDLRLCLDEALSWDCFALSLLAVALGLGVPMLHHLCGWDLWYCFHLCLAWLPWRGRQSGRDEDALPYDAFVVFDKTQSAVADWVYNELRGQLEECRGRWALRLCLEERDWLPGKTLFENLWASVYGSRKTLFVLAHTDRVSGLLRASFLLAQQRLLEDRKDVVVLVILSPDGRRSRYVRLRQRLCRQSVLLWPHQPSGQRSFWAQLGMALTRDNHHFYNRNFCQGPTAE
- TEST: disruptors of TLR9 binding to MyD88 – cell-based, CHO, BLA complementation, fluorescence, primary screen (AID 504734);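 note: 0% = DMSO only wells and 100% = clavulanate BLA inhibitor control wells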
- STATED CONDITIONS: CHO BLA complementation TLR9-MyD88, CCF4 FRET ratio; at 4.98 µM; stronger effect = higher value
In all, about 340,000 compounds went through this assay and about 730 (0.21%) were called active. The sample as a whole holds a higher share of actives than the screen did.
Measured inhibition of individual entries

{"MOLECULE": "Cc1ccn(CC(=O)NC2CCCN(Cc3ccccc3F)C2)n1 (stereo unspecified)", "UNIT LABEL": "%", "inhibition": 9}
{"MOLECULE": "COc1ccc(/C=C/C(=O)OCC(=O)NC2CCCCCC2)cc1OC", "UNIT LABEL": "%", "inhibition": -1.25}
{"MOLECULE": "COc1ccc(-c2nn(-c3ccccc3)cc2C(=O)Nc2nccs2)cc1OC", "UNIT LABEL": "%", "inhibition": 7.8}
{"MOLECULE": "CCOC(=O)c1c(NC(=S)SC)sc(C(=O)N2CCc3ccccc3C2)c1C", "UNIT LABEL": "%", "inhibition": -0.74}
{"MOLECULE": "C[C@H](CO)N1C[C@H](C)[C@@H](CN(C)C(=O)c2cnccn2)Oc2ncc(Br)cc2C1=O", "UNIT LABEL": "%", "inhibition": -6.82}
{"MOLECULE": "Oc1ccc2ccc3cccc[n+]3c2c1", "UNIT LABEL": "%", "inhibition": 30.4}
{"MOLECULE": "CC1(C)CCc2nc(SCc3ccccc3)c(C#N)cc2C1", "UNIT LABEL": "%", "inhibition": -6.7}
{"MOLECULE": "O=Cc1cn(-c2ccccc2)nc1-c1ccccn1", "UNIT LABEL": "%", "inhibition": -5.05}
{"MOLECULE": "Cc1cc(C)nc(SCc2ccccc2C#N)n1", "UNIT LABEL": "%", "inhibition": 23.9}
{"MOLECULE": "O=C(COC(=O)/C=C/c1cccs1)NC1CCCCC1", "UNIT LABEL": "%", "inhibition": 2.5}
{"MOLECULE": "COc1ccc(-c2nn(-c3ccccc3)cc2/C=N/Nc2ccccn2)cc1OC", "UNIT LABEL": "%", "inhibition": 27.6}
